ASSAYED_TARGET: Motilin receptor (Oryctolagus cuniculus)
Sequence (A5A4K8 whole entry): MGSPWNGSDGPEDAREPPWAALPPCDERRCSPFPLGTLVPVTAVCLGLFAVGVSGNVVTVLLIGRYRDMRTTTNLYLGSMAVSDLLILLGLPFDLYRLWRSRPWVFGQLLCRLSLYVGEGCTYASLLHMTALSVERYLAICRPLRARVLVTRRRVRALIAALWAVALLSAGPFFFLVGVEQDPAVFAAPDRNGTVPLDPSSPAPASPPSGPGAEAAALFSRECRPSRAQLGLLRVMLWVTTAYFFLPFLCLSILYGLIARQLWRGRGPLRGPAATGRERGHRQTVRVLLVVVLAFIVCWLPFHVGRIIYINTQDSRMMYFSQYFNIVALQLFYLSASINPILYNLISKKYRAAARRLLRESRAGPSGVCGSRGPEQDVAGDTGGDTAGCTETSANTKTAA
EXPERIMENTAL_DETAILS: In vitro binding affinity towards motilin receptor was determined after treatment with hydrochloric acid in rabbit small intestinal smooth muscle tissue homogenate
Assay type: tissue-based
REPORTED_METRIC: pIC50
Note on pIC50: it is the negative log10 of concentration, concentration in mol/L.

Recorded results for 2 compounds are shown here.
{"COMPOUND": "CCC1OC(=O)C(C)C(O[C@H]2C[C@@](C)(OC)CC(C)O2)C(C)[C@@H](OC2OC(C)CC(N(C)CC)[C@H]2O)[C@]2(C)CC(C)=C(O2)[C@H](C)C(=O)[C@]1(C)OC (stereo partly drawn)", "pIC50": 8.42}
{"COMPOUND": "CCC1OC(=O)C(C)C(O[C@H]2C[C@@](C)(OC)CC(C)O2)C(C)[C@@H](OC2OC(C)CC(N(C)C)[C@H]2O)[C@]2(C)CC(C)=C(O2)[C@H](C)C(=O)[C@]1(C)OC (stereo partly drawn)", "pIC50": 8.41}

Continue with the compound presented below.
[Q] Reported pIC50 for CCC1OC(=O)C(C)C(O[C@H]2C[C@@](C)(OC)CC(C)O2)C(C)[C@@H](OC2OC(C)CC(N(C)C(C)C)[C@H]2O)[C@]2(C)CC(C)=C(O2)[C@H](C)C(=O)[C@]1(C)OC (stereo partly drawn) : what is it?
[A] 8.75

Source listed as ChEMBL document CHEMBL1127928.
